# Tested on: ATP;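 further: ATP exposure 15 min at 22 °C before imaging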
# method: switch fluorescence ratio, 500 uM ATP over buffer (Cy3 cluster intensity, sum of 5 cycles each) (fold (ratio)); higher = stronger signal-on switching upon ATP binding; sequences stand for … in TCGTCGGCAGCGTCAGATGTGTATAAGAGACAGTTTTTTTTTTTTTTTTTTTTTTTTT…TC
# condition parameters: aptamer strand: ATP DNA aptamer (quencher-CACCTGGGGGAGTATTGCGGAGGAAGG + anchor), 100 nM annealed; ATP concentration: 500 uM

| seq text | target desc | switch fluorescence ratio |
| --- | --- | --- |
| ACGGATTAGG | ATP | 1.01 |
| ATGTAAGGCG | ATP | 1.01 |
| TTGTTTTACA | ATP | 0.984 |
| GAGCAAAGGT | ATP | 1.04 |
| GTGGTTTGAC | ATP | 0.99 |
| TATCAGTTGT | ATP | 1.03 |
| GTTGGAGGGG | ATP | 0.985 |
| ATATTTTGAC | ATP | 1.05 |
| AGCTGGGGTC | ATP | 0.985 |
| GATGAGGTGT | ATP | 1.01 |
| TAGGACTCTC | ATP | 1.01 |
| ATAGTGTGGC | ATP | 0.952 |
| TTACCAGCTT | ATP | 1.02 |
| CATGTTTGCC | ATP | 1.02 |
| TCTTACTGGG | ATP | 0.997 |
| CATTCTATGC | ATP | 1.03 |
| ATATGGGTGG | ATP | 1.01 |
| TCCAGGGTCA | ATP | 1.01 |
| AAGTGCATGG | ATP | 0.986 |
| ATTTATACGC | ATP | 1.06 |

###

# Test system: ATP;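 further: ATP exposure 15 min at 22 °C before imaging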
# method: switch fluorescence ratio, 500 uM ATP over buffer (Cy3 cluster intensity, sum of 5 cycles each) (fold (ratio)); higher = stronger signal-on switching upon ATP binding; sequences stand for … in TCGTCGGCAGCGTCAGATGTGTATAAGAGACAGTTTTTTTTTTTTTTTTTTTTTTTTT…TC
# condition parameters: aptamer strand: ATP DNA aptamer (quencher-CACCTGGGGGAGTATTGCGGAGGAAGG + anchor), 100 nM annealed; ATP concentration: 500 uM

| seq text | switch fluorescence ratio |
| --- | --- |
| TAGTGGACTC | 1.02 |
| GGTAACTTTG | 0.989 |
| GAATCATAGT | 1 |
| TCAGTCCTAT | 1 |
| ATAGTGATGT | 0.995 |
| GATGGCCATT | 1.02 |
| GTGTTCGAGT | 0.986 |
| CATGACGTGT | 1.01 |
| AGAGGCTTTT | 1.02 |
| TCATGGTTTA | 1.01 |
| GTTCCTGTGG | 1.02 |
| GTTGTGATCT | 0.989 |
| AAAGCTCGTA | 1.06 |
| AGGGTATTAG | 0.995 |
| TTCGTTATGT | 0.98 |
| GGGCACGAAG | 1 |
| ATTCCTCTGG | 1.2 |
| GTTGGGGGTC | 0.995 |
| TTAAAGGGTG | 1.08 |
| ATTGTGAAAT | 0.999 |
